- assayed system: recombinant His-tagged human OX40 extracellular domain (Homo sapiens, UniProt P43489)
- Sequence (P43489 29-214): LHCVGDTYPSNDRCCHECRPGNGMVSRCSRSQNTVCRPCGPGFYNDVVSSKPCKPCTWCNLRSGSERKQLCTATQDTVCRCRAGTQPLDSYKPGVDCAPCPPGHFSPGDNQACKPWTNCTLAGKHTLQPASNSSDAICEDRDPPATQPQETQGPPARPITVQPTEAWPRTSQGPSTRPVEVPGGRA
readout name: Kd (nM)

* tOX40.41 (S-CL-LN-9) (antibody, V domains shown) VH: QVQLQESGPGLVKPSETLSLTCTVSGGSISSYYWSWIRQPPGKGLEWIGYIYYSGSTNYNPSLKSRVTISVDTSKNQFSLKLSSVTAADTAVYYCARYYDILTVWDWFDPWGQGTLVTVSS VL: DIQMTQSPSSLSASVGDRVTITCRASQGISSWLAWYQQKPGKAPKSLIYAASSLQSGVPSRFSGSGSGTDFTLTISSLQPEDFATYYCQQYNSYPITFGQGTRLEIK | 58.4
